Test system: RARg:RXRa (NR concentration 270 nM, RXRa partner concentration 90 nM)
Assay: PBM binding z-score (relative to random genomic background probes); higher = stronger binding; sequences stand for … in GC…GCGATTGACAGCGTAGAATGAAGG
Give T when the value for PBM binding z-score is at least 2. Give F when it is less.

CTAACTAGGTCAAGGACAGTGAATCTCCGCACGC: T
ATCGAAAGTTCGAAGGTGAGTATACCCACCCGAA: F

stdin: Identify whether the reported PBM binding z-score of the following sequence is 2 or greater: "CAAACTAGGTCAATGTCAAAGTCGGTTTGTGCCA"
stdout: T

stdin: Query "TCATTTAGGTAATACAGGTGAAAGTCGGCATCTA" next
stdout: F

====

System: RARb:RXRa (NR concentration 270 nM, RXRa partner concentration 90 nM)
Experiment: PBM binding z-score (relative to random genomic background probes); higher = stronger binding; sequences stand for … in GC…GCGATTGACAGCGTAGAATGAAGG
MEASUREMENT KIND: PBM binding z-score
Just the number, please, no unit after it.

Recorded results for 3 sequences are shown here.
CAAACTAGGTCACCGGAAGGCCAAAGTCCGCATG: 4.54
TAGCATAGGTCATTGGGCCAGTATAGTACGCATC: 3.97
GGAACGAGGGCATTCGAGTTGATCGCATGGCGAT: 1.68

# evaluate next
stdin: # lookup: PBM binding z-score of "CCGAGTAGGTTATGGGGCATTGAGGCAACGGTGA"
stdout: 0.976

====

System: RARb homodimer (NR concentration 270 nM)
Test: PBM binding z-score (relative to random genomic background probes); higher = stronger binding; sequences stand for … in GC…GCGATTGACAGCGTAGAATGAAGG
MEASUREMENT KIND: PBM binding z-score
Hey, just send me the number, nothing else.

A selection of reference data follows.
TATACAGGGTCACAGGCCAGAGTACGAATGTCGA: 3.83
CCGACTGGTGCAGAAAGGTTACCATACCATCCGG: 1.73
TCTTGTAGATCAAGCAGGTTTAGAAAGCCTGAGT: -0.518
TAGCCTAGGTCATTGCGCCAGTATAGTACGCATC: 2.53
CCAGACAGGTGAGAAGGGAACTCAGCCTCGATTA: 0.237
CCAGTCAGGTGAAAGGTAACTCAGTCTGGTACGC: 0.929

stdin: Give its PBM binding z-score value. Item: "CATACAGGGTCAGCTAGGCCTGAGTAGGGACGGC"
stdout: 2.93

====

System: PPARa:RXRa (NR concentration 270 nM, RXRa partner concentration 90 nM)
Assay: PBM binding z-score (relative to random genomic background probes); higher = stronger binding; sequences stand for … in GC…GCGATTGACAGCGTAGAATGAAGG
Each entry falls in a class defined on PBM binding z-score; the bands are low-valued: < 2; mid-valued: ≥ 2 and < 3; high-valued: ≥ 3

Look over these answered cases.
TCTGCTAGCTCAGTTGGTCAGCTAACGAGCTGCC: low-valued
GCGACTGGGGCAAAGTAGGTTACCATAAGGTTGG: mid-valued
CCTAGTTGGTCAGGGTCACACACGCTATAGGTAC: high-valued
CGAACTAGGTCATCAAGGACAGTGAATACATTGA: high-valued
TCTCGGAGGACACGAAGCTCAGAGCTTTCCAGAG: low-valued
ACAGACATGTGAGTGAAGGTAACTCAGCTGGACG: low-valued

stdin: Hi, small favor: classify "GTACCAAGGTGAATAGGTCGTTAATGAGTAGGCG" by its PBM binding z-score when you get a moment.
stdout: mid-valued

stdin: Same for "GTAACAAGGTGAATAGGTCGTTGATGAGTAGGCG"
stdout: mid-valued

stdin: And then "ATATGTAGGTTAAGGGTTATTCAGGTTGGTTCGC" , what is it?
stdout: high-valued

stdin: # iterate: "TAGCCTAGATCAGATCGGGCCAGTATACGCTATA"
stdout: low-valued

====

In this section we review reported PBM binding z-score values for a set of sequences.
System: PPARg:RXRa DBDmut IVT, anti-RXR (DBD mutation: RXRa K156A/R161A, NR concentration 270 nM, RXRa partner concentration 90 nM)
Assay: PBM binding z-score (relative to random genomic background probes); higher = stronger binding; sequences stand for … in GC…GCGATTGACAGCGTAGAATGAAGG
Could you respond with only the numeric value?

Worked examples follow.
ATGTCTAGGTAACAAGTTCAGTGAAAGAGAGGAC: 2.05
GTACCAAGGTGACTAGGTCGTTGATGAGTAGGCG: 1.99

Pending sequence:
stdin: Entry under review: "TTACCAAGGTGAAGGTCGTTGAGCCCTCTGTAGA" . Reported PBM binding z-score?
stdout: 1.99

====

System: LXRa homodimer (NR concentration 270 nM)
Test: PBM binding z-score (relative to random genomic background probes); higher = stronger binding; sequences stand for … in GC…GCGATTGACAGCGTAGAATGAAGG
MEASUREMENT KIND: PBM binding z-score
Kindly provide the number alone.

Examples with answers:
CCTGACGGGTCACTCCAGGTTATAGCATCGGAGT: 1.51
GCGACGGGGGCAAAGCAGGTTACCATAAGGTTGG: 0.414
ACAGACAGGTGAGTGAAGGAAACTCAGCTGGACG: -0.15
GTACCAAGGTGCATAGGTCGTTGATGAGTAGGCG: 0.209
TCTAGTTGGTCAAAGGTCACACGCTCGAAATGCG: 4.22
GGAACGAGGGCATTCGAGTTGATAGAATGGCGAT: -0.262
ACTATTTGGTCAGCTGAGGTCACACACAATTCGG: 2.98
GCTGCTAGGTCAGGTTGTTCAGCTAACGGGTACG: -0.00729
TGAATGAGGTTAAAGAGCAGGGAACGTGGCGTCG: -0.586
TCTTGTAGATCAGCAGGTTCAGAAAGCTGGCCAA: -0.435

stdin: Request the reported PBM binding z-score associated with "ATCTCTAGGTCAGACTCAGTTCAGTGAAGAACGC"
stdout: 3.15

stdin: Quick one: "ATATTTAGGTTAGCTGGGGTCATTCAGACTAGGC"
stdout: 3.69

stdin: Please give the result for "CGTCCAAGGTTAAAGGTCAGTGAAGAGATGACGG" too.
stdout: 1.72

stdin: And the next one, "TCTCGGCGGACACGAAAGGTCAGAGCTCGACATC" ?
stdout: 2.3

stdin: Also "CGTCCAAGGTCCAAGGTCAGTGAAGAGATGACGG" , if possible.
stdout: 0.179

stdin: // next record "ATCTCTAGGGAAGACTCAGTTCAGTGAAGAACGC"
stdout: 0.196

stdin: Similarly, "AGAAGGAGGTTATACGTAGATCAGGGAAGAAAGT" ?
stdout: 0.366

stdin: Similarly, "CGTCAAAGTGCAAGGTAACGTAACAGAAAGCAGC" ?
stdout: -0.312

stdin: Record: "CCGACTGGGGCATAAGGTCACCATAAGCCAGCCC"
stdout: 0.732

====

The following sequences are listed with their measured PBM binding z-score values.
System: PPARg:RXRa DBDmut IVT, anti-RXR (DBD mutation: RXRa K156A/R161A, NR concentration 270 nM, RXRa partner concentration 90 nM)
Test: PBM binding z-score (relative to random genomic background probes); higher = stronger binding; sequences stand for … in GC…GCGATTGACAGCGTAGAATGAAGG
Number only, no unit.

stdin: Using the record for "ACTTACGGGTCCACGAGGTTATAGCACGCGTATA" , report its PBM binding z-score.
stdout: 0.0725

stdin: Same again, this time with "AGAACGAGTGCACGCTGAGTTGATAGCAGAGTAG"
stdout: -0.434

stdin: Would you kindly repeat that for "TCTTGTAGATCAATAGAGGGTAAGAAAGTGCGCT" ?
stdout: 1.96

stdin: Next up: "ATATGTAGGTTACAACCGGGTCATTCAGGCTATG"
stdout: 7.11

====

Tested on: PPARg:RXRa (NR concentration 180 nM, RXRa partner concentration 90 nM)
Assay: PBM binding z-score (relative to random genomic background probes); higher = stronger binding; sequences stand for … in GC…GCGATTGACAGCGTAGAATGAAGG
MEASUREMENT KIND: PBM binding z-score
No unit in the answer, please; the number alone is enough.

Below, 2 sequences whose answers are already recorded.
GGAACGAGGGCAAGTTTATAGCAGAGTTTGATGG: 1.24
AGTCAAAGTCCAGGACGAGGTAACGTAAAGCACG: 0.733

Consider the record given below.
stdin: Missing value: PBM binding z-score, PPARg:RXRa (NR concentration 180 nM, RXRa partner concentration 90 nM), entry "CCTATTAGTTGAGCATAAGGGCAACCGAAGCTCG" . Fill in?
stdout: 0.333
